# Experimental details: binders from COS7 lysate, DM2A8 probe, primary screen, torsin A project, cell lysate, small-molecule microarray, fluorescence 635/667 (AID 1065)
# Cond: higher = more signal, COS7 lysate expressing mutant human TOR1A
Answer NOT MET if composite z-score is under 0.5, and MET if it is 0.5 or more.

Please review the following examples before continuing.
>  <Molecule>
COc1ccc(O[C@H]2C=C[C@@H](c3ccccc3)O[C@@H]2CON=C[C@@H](C)[C@H](OCc2ccccc2)C(C)C)cc1

>  <Group>
NOT MET

$$$$
>  <Molecule>
CCCC[C@@H]1C[C@H]1[C@@H](NS(=O)(=O)c1cccc2cccnc12)c1ccc(-c2ccccc2)cc1

>  <Group>
NOT MET

$$$$
>  <Molecule>
CCN1C(=O)[C@H]2[C@H]3[C@H](O)[C@H](O)CC(=NOC[C@@H](C)[C@H](OCc4ccccc4)C(C)C)[C@@H]3CC[C@H]2C1=O

>  <Group>
MET

$$$$
>  <Molecule>
C#CCCCON=C1C[C@@H](O)[C@@H](O)[C@@H]2[C@@H]3C(=O)N(CCC(=O)OCC)C(=O)[C@@H]3CC[C@@H]12

>  <Group>
MET

$$$$

INPUT: Check if composite z-score >= 0.5 (inclusive). Item: O=C1C[C@@H](O)[C@@H](O)[C@@H]2[C@@H]3C(=O)N(Cc4ccc5c(c4)OCO5)C(=O)[C@@H]3CC[C@@H]12
OUTPUT: NOT MET

INPUT: Is the recorded value of composite z-score equal to or greater than 0.5 for this molecule? CO[C@@H]1COC(=O)CC=C[C@@H](C)COC(=O)[C@H](COCc2ccccc2)NC(=O)CC=C[C@H]1C
OUTPUT: MET

INPUT: In plain terms: is recorded composite z-score at least 0.5 for CC(C)=NOCc1ccc(-c2cc(-c3ccccc3)no2)cc1 ?
OUTPUT: NOT MET

* * *

# Tested on: Chordin-like protein 2 (CHRDL2)
# Experimental details: CHRDL2 small-molecule binders, primary screen, biochemical, small-molecule microarray, 635 nm fluorescence (AID 1126);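 further: printed compound slides probed with Chrdl2 protein at 4 µg/mL for 1 h at 4 C; score merges 667 nm emission intensity with signal to noise over three replicate slides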
# Cond: small-molecule microarray binding, fluorescence 635 nm; higher = more signal
Task for the reader: assign each of the following molecules its reported composite z-score.
Numbers only.

>  <Molecule>
COC(=O)[C@H](C)NC(=O)CCC1CC(OC(=O)NCc2ccc3c(c2)OCO3)CC2(CCCC(COC(=O)NCCOc3ccccc3)O2)O1 (some centres not stated)

>  <Tested system>
Chordin-like protein 2 (CHRDL2)

>  <composite z-score>
0.344

$$$$
>  <Molecule>
O=C1[C@H]2[C@H]3[C@H](O)[C@H](O)CC(=NO[C@@H]4O[C@H](CO)[C@@H](O)[C@H](O)[C@H]4O)[C@H]3CC[C@H]2C(=O)N1Cc1ccccc1

>  <Tested system>
Chordin-like protein 2 (CHRDL2)

>  <composite z-score>
-0.564

$$$$
>  <Molecule>
CC1(C)OCC(C(O)C2=CCCCC2=O)CO1 (configuration not stated)

>  <Tested system>
Chordin-like protein 2 (CHRDL2)

>  <composite z-score>
0.883

$$$$

Please give composite z-score, item by item, for the list that follows.
1. COCCCNC(=O)[C@@]1(Sc2ccc(C)cc2)CC(=O)N(Cc2ccccc2)[C@@H]1c1ccc(CO)cc1I
2. O=C1[C@H]2[C@H]3[C@H](O)[C@H](O)CC(=NO[C@@H]4O[C@H](CO)[C@@H](O)[C@H](O)[C@H]4O)[C@@H]3CC[C@H]2C(=O)N1Cc1ccc2c(c1)OCO2
3. CO[C@@H]1COC(=O)CC=C[C@@H](C)[C@H](OC)COC(=O)[C@H](COCc2ccccc2)NC(=O)CC=C[C@H]1C
4. CCOC(=O)CCN1C(=O)[C@H]2[C@H]3[C@H](O)[C@H](O)CC(=NNC(=O)OCc4ccc(OC)cc4)[C@@H]3CC[C@H]2C1=O

OUTPUT:
[-0.527, 0.538, 1.22, 0.388]
